- System Tested: human TLR7 (Homo sapiens, UniProt Q9NYK1)
- Sequence (Q9NYK1 27-1049): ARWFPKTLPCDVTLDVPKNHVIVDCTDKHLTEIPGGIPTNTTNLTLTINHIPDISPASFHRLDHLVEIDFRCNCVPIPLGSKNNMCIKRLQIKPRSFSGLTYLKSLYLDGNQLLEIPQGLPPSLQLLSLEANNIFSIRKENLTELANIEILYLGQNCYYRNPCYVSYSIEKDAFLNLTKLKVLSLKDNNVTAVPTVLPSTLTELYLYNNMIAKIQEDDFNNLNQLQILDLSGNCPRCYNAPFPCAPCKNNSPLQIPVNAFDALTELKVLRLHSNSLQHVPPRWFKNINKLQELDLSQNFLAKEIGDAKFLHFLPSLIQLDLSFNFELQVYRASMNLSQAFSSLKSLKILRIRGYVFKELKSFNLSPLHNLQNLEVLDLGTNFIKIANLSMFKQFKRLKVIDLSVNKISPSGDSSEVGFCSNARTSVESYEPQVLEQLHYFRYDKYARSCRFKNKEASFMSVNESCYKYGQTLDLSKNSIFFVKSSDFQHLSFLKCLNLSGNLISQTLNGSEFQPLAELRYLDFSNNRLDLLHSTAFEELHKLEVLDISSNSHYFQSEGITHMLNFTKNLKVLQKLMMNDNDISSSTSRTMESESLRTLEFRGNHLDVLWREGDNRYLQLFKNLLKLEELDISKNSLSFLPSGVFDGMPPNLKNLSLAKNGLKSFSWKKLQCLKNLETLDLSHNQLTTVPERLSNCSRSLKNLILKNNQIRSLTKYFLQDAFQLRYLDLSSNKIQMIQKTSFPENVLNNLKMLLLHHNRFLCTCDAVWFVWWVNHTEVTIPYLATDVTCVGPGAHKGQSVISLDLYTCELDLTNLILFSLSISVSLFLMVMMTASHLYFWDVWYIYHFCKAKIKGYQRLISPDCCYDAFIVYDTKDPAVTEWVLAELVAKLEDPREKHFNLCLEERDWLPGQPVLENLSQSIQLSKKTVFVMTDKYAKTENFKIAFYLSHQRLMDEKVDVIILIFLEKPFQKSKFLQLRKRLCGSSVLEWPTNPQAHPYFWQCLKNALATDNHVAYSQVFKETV
- Protocol Details: HEK293-Blue-hTLR-7 cells assay (SEAP reporter, R848 stimulation)
- Assay Setup: HEK293-Blue-hTLR7 cells, R848, 20 hrs; read-out: HEK/hTLR7 IC50
pIC50: −log10 of the molar value.
Experimental Endpoint: pIC50

[
  {
    "Compound": "Cc1cc(N2CCN(C[C@H]3CN(c4ccc(C#N)c5ncccc45)C[C@@H](C)O3)CC2)nc(N2C[C@@H](N)[C@@H](F)C2)n1",
    "Recorded Measurement": 7.85
  },
  {
    "Compound": "COC1CN(c2nc(C)cc(N3CCN(C[C@H]4CN(c5ccc(C#N)c6ncccc56)C[C@@H](C)O4)CC3)n2)CC1N (single isomer, unassigned)",
    "Recorded Measurement": 7.68
  },
  {
    "Compound": "[2H]c1ccc2c(N3C[C@H](CN4CCN(c5nc(C)cc(N6C[C@@H](N)[C@H](OC)C6)n5)CC4)O[C@H](C)C3)ccc(C#N)c2n1",
    "Recorded Measurement": 7.96
  },
  {
    "Compound": "[2H]c1ccc2c(N3C[C@H](CN4CCN(c5nc(C)cc(N6CC(C)(N)C6)n5)CC4)O[C@H](C)C3)ccc(C#N)c2n1",
    "Recorded Measurement": 7.80
  },
  {
    "Compound": "Cc1cc(N2CCN(C[C@H]3CN(c4ccc(C#N)c5ncccc45)C[C@@H](C)O3)CC2)nc(N2CCNCC(O)C2)n1 (stereo partly shown)",
    "Recorded Measurement": 7.77
  },
  {
    "Compound": "Cc1ccc(N2C[C@H](CN3CCN(c4ccnc(N5CCN[C@H](C)C5)n4)CC3)O[C@H](C)C2)c2nccnc12",
    "Recorded Measurement": 7.52
  },
  {
    "Compound": "Cc1cc(N2CCNCC2)nc(N2CCN(C[C@H]3CN(c4ccc(C#N)c5ncccc45)C[C@@H](C)O3)CC2)n1",
    "Recorded Measurement": 8.05
  },
  {
    "Compound": "C[C@@H]1CN(c2ccc(C#N)c3ncccc23)C[C@H](CN2CCN(c3ccc(N4CCNCC4)nc3)CC2)O1",
    "Recorded Measurement": 7.74
  },
  {
    "Compound": "C[C@@H]1CN(c2ccc(C#N)c3nccnc23)C[C@H](CN2CCN(c3ccnc(N4C[C@@H](N)[C@@H](F)C4)n3)CC2)O1",
    "Recorded Measurement": 8.30
  },
  {
    "Compound": "COC1CN(c2nccc(N3CCN(C[C@H]4CN(c5ccc(C#N)c6ncccc56)C[C@@H](C)O4)CC3)n2)C[C@H]1N (stereo in doubt)",
    "Recorded Measurement": 7.82
  },
  {
    "Compound": "Cc1cc(N2CCN(C[C@H]3CN(c4ccc(C#N)c5ncccc45)C[C@@H](C)O3)CC2)nc(N2CCNCC2)n1",
    "Recorded Measurement": 7.89
  },
  {
    "Compound": "C[C@@H]1CN(c2ccc(C#N)c3ncccc23)C[C@H](CN2CCN(c3ccc([C@H]4CNCCO4)cc3)CC2)O1",
    "Recorded Measurement": 7.70
  },
  {
    "Compound": "C[C@@H]1CN(c2ccc(C#N)c3ncccc23)C[C@H](CN2CCN(c3cnc(N4CCNCC4)cn3)CC2)O1",
    "Recorded Measurement": 7.29
  },
  {
    "Compound": "[2H]c1nc2c(C#N)ccc(N3C[C@H](CN4CCN(c5nc(C)cc(N6C[C@H](OC)[C@@H](N)C6)n5)CC4)O[C@H](C)C3)c2nc1[2H]",
    "Recorded Measurement": 7.89
  },
  {
    "Compound": "Cc1cc(N2CCN(C[C@H]3CN(c4ccc(C#N)c5ncccc45)C[C@@H](C)O3)CC2)nc(N2CC[C@@H](N)[C@@H](F)C2)n1",
    "Recorded Measurement": 7.70
  },
  {
    "Compound": "Cc1cc(N2CCN(C[C@H]3CN(c4ccc(C#N)c5ncccc45)C[C@@H](C)O3)CC2)nc(N2CCC(N)C(F)(F)C2)n1 (stereo partly shown)",
    "Recorded Measurement": 7.66
  },
  {
    "Compound": "CO[C@H]1CN(c2ccnc(N3CCN(C[C@H]4CN(c5ccc(C#N)c6ncccc56)C[C@@H](C)O4)CC3)n2)C[C@@H]1N",
    "Recorded Measurement": 7.57
  },
  {
    "Compound": "C[C@@H]1CN(c2ccc(C#N)c3ncccc23)C[C@H](CN2CCN(c3cccc(N4CC(N)C(F)C4)n3)CC2)O1 (stereo partly shown)",
    "Recorded Measurement": 7.46
  },
  {
    "Compound": "Cc1cc(N2CCN(C[C@H]3CN(c4ccc(C#N)c5ncccc45)C[C@@H](C)O3)CC2)nc(N2CC(N)C(F)C2)n1 (stereo in doubt)",
    "Recorded Measurement": 8.05
  },
  {
    "Compound": "C[C@@H]1CN(c2ccc(C#N)n3ncc(F)c23)C[C@H](CN2CCN(c3ccc([C@@H]4CNCCO4)cc3)CC2)O1",
    "Recorded Measurement": 7.80
  },
  {
    "Compound": "Cc1cc(N2CCN(C[C@H]3CN(c4ccc(C#N)c5ncccc45)C[C@@H](C)O3)CC2)nc(N2C[C@@H](N)[C@H](F)C2)n1",
    "Recorded Measurement": 7.68
  },
  {
    "Compound": "C[C@@H]1CN(c2ccc(C#N)c3ncccc23)C[C@H](CN2CCN(c3ccnc(N4CC(N)C4)n3)CC2)O1",
    "Recorded Measurement": 7.30
  },
  {
    "Compound": "C[C@@H]1CN(c2cc(=O)n(C)c3ncccc23)C[C@H](CN2CC(c3ccc(N4CC5(CN(C)C5)C4)cc3)C2)O1",
    "Recorded Measurement": 7.28
  },
  {
    "Compound": "[2H]c1ccc2c(N3C[C@H](CN4CC(c5cnc(N6CC(C)(N)C6)cc5C)C4)O[C@H](C)C3)ccc(C#N)c2n1",
    "Recorded Measurement": 7.85
  },
  {
    "Compound": "C[C@@H]1CN(c2ccc(C#N)c3ncccc23)C[C@H](CN2CCN(c3cccc(N[C@H]4CNC[C@H]4F)n3)CC2)O1",
    "Recorded Measurement": 7.15
  }
]

###

List of inhibition at 5 min, 10 µM values.
- System Tested: CYP2C9 (Homo sapiens, UniProt P11712)
- Construct: tissue BD-Gentest 452117; host or cells: human liver microsomes
- Sequence (P11712 whole entry): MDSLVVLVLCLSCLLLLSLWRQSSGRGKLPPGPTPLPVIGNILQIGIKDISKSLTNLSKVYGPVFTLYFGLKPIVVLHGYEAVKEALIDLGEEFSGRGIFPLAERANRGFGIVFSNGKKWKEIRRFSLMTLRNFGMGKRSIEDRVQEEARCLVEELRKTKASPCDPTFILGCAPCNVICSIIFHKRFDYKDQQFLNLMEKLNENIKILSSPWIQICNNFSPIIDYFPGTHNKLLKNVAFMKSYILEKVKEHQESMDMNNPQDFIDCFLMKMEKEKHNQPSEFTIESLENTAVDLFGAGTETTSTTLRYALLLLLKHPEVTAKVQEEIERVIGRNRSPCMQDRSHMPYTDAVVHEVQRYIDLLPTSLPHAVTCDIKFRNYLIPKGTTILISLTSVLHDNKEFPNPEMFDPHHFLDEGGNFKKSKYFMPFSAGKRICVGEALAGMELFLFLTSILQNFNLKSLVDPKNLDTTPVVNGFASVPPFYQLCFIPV
- Protocol Details: CYP inhibition assay in human liver microsome, CYP2C9
- Type: in vitro ADME
- Assay Setup: human, human liver microsomes, probe diclofenac 5 μM, substrate diclofenac 5 μM, first value of 2C9/2D6/3A4
Experimental Endpoint: inhibition at 5 min, 10 µM (%)

[
  {
    "Compound": "[2H]c1ccc2c(N3C[C@H](CN4CCN(c5ccc(N6C[C@@H](N)[C@H](OC)C6)nc5)CC4)O[C@H](C)C3)ccc(C#N)c2n1 [Example 143]",
    "System Tested": "CYP2C9 (Homo sapiens, UniProt P11712)",
    "Recorded Measurement": -9.5
  },
  {
    "Compound": "C[C@@H]1CN(c2ccc(C#N)c3ncccc23)C[C@H](CN2CCN(c3nccc(N4CCNCC4)n3)CC2)O1 [Example 14]",
    "System Tested": "CYP2C9 (Homo sapiens, UniProt P11712)",
    "Recorded Measurement": 0
  },
  {
    "Compound": "C[C@@H]1CN(c2ccc(C#N)c3ncccc23)C[C@H](CN2CC(c3cccc(N4CCNCC4)c3)C2)O1 [Example 4]",
    "System Tested": "CYP2C9 (Homo sapiens, UniProt P11712)",
    "Recorded Measurement": 5.5
  },
  {
    "Compound": "C[C@@H]1CN(c2ccc(C#N)c3ncccc23)C[C@H](CN2CC(c3ccc(N4CCNCC4)cc3)C2)O1 [Example 3]",
    "System Tested": "CYP2C9 (Homo sapiens, UniProt P11712)",
    "Recorded Measurement": -18
  },
  {
    "Compound": "C[C@@H]1CN(c2ccc(C#N)n3ncc(F)c23)C[C@H](CN2CC(c3ccc(N4CC(C)(N)C4)cc3)C2)O1 [Example 160]",
    "System Tested": "CYP2C9 (Homo sapiens, UniProt P11712)",
    "Recorded Measurement": -1.5
  },
  {
    "Compound": "C[C@@H]1CN(c2ccc(C#N)c3ncccc23)C[C@H](CN2CCN(c3cc(N4CCNCC4)ccn3)CC2)O1 [Example 9]",
    "System Tested": "CYP2C9 (Homo sapiens, UniProt P11712)",
    "Recorded Measurement": -7.5
  }
]
